# System: SK-BR-3
# METHOD: Growth inhibition of CDK9-positive tumor cell line in vitro
# Type: cell-based
# ASSAY_CONTEXT: Human breast cancer, read-out: Inhibitory activity (IC50) on growth in vitro, SK-BR-3
What IC50 was measured for each of the following?

Take a look at these entries with their results.
CC(C)N1CCN(c2cccc(Nc3ncc(F)c(-n4cc(C(N)=O)c5ccccc54)n3)c2)CC1 < 1 nM
CCN1CCN(c2cccc(Nc3ncc(F)c(-n4cc(C(N)=O)c5cc(F)ccc54)n3)c2)CC1 < 1 nM
NC(=O)c1cn(-c2nc(Nc3cccc(N4CCN(C5CCOCC5)CC4)c3)ncc2F)c2ccccc12 < 1 nM
Cc1cc(Nc2ncc(Cl)c(-n3cc(C(N)=O)c4ccccc43)n2)ccc1N1CCN(C(C)C)CC1 1 to 10 nM

Proceed to the following item.
Recorded IC50 for `CCN1CCN(c2cccc(Nc3ncc(F)c(-n4cc(C(N)=O)c5cc(OC)ccc54)n3)c2)CC1` with SK-BR-3, please?
< 1 nM

----------
For each of the compounds below, state its IC50.
# Tested on: JIMT-1
# METHOD: Growth inhibition of CDK9-positive tumor cell line in vitro
# Assay type: cell-based
# ASSAY_CONTEXT: Human breast cancer, read-out: Inhibitory activity (IC50) on growth in vitro, JIMT-1

COMPOUND	IC50
NC(=O)c1cn(-c2nc(Nc3cccc(N4CCN(C5CCOCC5)CC4)c3)ncc2F)c2ccccc12 [Compound 140]	< 1 nM
Cc1cc(Nc2ncc(Cl)c(-n3cc(C(N)=O)c4ccccc43)n2)ccc1N1CCN(C(C)C)CC1 [Compound 60]	10 to 100 nM
CCN1CCN(c2cccc(Nc3ncc(F)c(-n4cc(C(N)=O)c5cc(F)ccc54)n3)c2)CC1 [Compound 161]	< 1 nM

For every record below, what is its IC50?
1. CC(C)N1CCN(c2cccc(Nc3ncc(F)c(-n4cc(C(N)=O)c5ccccc54)n3)c2)CC1 [Compound 144]
2. CCN1CCN(c2cccc(Nc3ncc(F)c(-n4cc(C(N)=O)c5cc(OC)ccc54)n3)c2)CC1 [Compound 152]

1. < 1 nM
2. < 1 nM

----------
What IC50 was measured for each of the following?
# System: Colo205
# METHOD: Growth inhibition of CDK9-positive tumor cell line in vitro
# Assay type: cell-based
# ASSAY_CONTEXT: COLO 205, Human intestinal cancer, read-out: Inhibitory activity (IC50) on growth in vitro, Colo205

Before answering, review these 4 worked examples.
CC(C)N1CCN(c2cccc(Nc3ncc(F)c(-n4cc(C(N)=O)c5ccccc54)n3)c2)CC1 1 to 10 nM
NC(=O)c1cn(-c2nc(Nc3cccc(N4CCN(C5CCOCC5)CC4)c3)ncc2F)c2ccccc12 1 to 10 nM
CCN1CCN(c2cccc(Nc3ncc(F)c(-n4cc(C(N)=O)c5cc(OC)ccc54)n3)c2)CC1 1 to 10 nM
Cc1cc(Nc2ncc(Cl)c(-n3cc(C(N)=O)c4ccccc43)n2)ccc1N1CCN(C(C)C)CC1 100 to 1000 nM

Then there is this molecule:
Form field: reported IC50 of `CCN1CCN(c2cccc(Nc3ncc(F)c(-n4cc(C(N)=O)c5cc(F)ccc54)n3)c2)CC1`
1 to 10 nM

----------
For each of the compounds below, state its IC50.
# TEST_TARGET: CDK9/CyclinK kinase (Homo sapiens)
# Sequence (P50750 whole entry): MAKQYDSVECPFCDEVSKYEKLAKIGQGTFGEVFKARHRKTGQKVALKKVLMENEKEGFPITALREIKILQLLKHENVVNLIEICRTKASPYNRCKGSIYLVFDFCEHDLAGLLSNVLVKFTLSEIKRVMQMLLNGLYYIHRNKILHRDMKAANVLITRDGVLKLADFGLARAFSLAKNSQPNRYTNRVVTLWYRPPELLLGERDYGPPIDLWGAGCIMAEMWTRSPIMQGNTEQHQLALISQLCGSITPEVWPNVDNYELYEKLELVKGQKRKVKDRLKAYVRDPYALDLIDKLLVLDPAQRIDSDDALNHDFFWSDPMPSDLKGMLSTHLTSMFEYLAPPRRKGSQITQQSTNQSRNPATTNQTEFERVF
# Sequence (O75909 whole entry partner): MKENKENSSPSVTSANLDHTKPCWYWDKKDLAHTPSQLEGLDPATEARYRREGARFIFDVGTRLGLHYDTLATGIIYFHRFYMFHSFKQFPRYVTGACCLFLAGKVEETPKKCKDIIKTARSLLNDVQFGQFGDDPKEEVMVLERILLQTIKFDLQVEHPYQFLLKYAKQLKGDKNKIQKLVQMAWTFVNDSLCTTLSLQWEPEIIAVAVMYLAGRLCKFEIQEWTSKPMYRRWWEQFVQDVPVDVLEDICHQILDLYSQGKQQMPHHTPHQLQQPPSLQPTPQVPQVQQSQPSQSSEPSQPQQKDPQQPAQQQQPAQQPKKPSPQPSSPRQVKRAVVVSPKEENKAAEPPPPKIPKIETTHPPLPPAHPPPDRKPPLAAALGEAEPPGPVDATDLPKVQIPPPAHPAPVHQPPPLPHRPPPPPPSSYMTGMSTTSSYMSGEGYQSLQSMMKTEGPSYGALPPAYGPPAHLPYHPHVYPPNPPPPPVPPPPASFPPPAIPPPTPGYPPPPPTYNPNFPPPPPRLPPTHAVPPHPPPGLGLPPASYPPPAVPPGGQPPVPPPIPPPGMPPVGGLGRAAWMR
# METHOD: CDK9 protein kinase activity, ADP-Glo CDK9/CyclinK kinase detection kit
# ASSAY_CONTEXT: read-out: IC50 of the compound for inhibiting CDK9 protein kinase activity, CDK9/CyclinK kinase

# example entries with known answers
COMPOUND	IC50
Cc1cc(Nc2ncc(Cl)c(-n3cc(C(N)=O)c4ccccc43)n2)ccc1N1CCN(C)CC1 [Compound 56]	1 to 10 nM
Cc1cc(Nc2ncc(Cl)c(-n3cc(C(N)=O)c4ccccc43)n2)ccc1N1CCN(C(C)C)CC1 [Compound 60]	1 to 10 nM
Cc1cc(Nc2ncc(Cl)c(-n3cc(C(N)=O)c4ccccc43)n2)ccc1N1CCNCC1 [Compound 42]	1 to 10 nM

Need IC50 for each of these compounds.
1. CN1CCN(c2cccc(Nc3ncc(F)c(-n4cc(C(N)=O)c5ccccc54)n3)c2)CC1 [Compound 115]
2. Cc1cc(Nc2ncc(F)c(-n3cc(C(N)=O)c4ccccc43)n2)ccc1N1CCN(C)CC1 [Compound 55]
3. Cc1cc(Nc2ncc(Cl)c(-n3cc(C(N)=O)c4ccccc43)n2)ccc1N(C)CCN(C)C [Compound 89]

["< 1 nM", "1 to 10 nM", "10 to 100 nM"]
